# Study Target: ZNF721 DBD1 (Homo sapiens, UniProt Q8TF20-2 29-461)
# Sequence (Q8TF20 17-449): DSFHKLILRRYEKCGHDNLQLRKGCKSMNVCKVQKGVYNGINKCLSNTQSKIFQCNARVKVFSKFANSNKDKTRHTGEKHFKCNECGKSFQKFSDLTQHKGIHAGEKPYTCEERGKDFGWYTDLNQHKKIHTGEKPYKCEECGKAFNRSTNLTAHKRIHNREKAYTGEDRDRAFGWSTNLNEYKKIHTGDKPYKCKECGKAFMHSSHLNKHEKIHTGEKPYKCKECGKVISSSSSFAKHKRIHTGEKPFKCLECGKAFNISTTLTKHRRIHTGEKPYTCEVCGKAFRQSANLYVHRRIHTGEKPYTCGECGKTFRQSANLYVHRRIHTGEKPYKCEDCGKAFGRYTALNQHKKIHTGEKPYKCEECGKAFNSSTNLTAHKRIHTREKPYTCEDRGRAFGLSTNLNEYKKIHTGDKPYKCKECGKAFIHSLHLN
# Experiment Summary: HT-SELEX; 20 mM HEPES pH 7, 140 mM KCl, 5 mM NaCl, 1 mM K2HPO4, 2 mM MgSO4, 100 uM EGTA, ZnSO4, 0.1% Tween20; room temperature, 1 h; high values mean tight binding
# Test Context: protein: ivt; tags: eGFP (N-terminal); dsDNA, one strand shown
binding signal reference
Observation Type: binding signal (relative 10-mer count)

[
  {
    "Sequence Content": "CCACGCCCCC",
    "Observation Type": "binding signal",
    "Assay Result": 0.00605
  },
  {
    "Sequence Content": "GCCCCGCCCC",
    "Observation Type": "binding signal",
    "Assay Result": 0.00436
  },
  {
    "Sequence Content": "CCACCCAACC",
    "Observation Type": "binding signal",
    "Assay Result": 0.00674
  },
  {
    "Sequence Content": "CACCCGCCCC",
    "Observation Type": "binding signal",
    "Assay Result": 0.0066
  },
  {
    "Sequence Content": "CCCCTCCCAC",
    "Observation Type": "binding signal",
    "Assay Result": 0.0104
  },
  {
    "Sequence Content": "AAGCGTCTCC",
    "Observation Type": "binding signal",
    "Assay Result": 0.084
  },
  {
    "Sequence Content": "CCTGCCCCCC",
    "Observation Type": "binding signal",
    "Assay Result": 0.00454
  },
  {
    "Sequence Content": "AAGCAGCGTA",
    "Observation Type": "binding signal",
    "Assay Result": 0.00124
  },
  {
    "Sequence Content": "CACCTCCCCC",
    "Observation Type": "binding signal",
    "Assay Result": 0.00798
  },
  {
    "Sequence Content": "ACCGAAAAAA",
    "Observation Type": "binding signal",
    "Assay Result": 0.00949
  },
  {
    "Sequence Content": "CCCACCCGCC",
    "Observation Type": "binding signal",
    "Assay Result": 0.00794
  },
  {
    "Sequence Content": "ACAAAAAAAC",
    "Observation Type": "binding signal",
    "Assay Result": 0.00188
  },
  {
    "Sequence Content": "AAAAGCAGCA",
    "Observation Type": "binding signal",
    "Assay Result": 0.00578
  },
  {
    "Sequence Content": "AGCGTATCCT",
    "Observation Type": "binding signal",
    "Assay Result": 0.0287
  },
  {
    "Sequence Content": "ACCCCCCGCC",
    "Observation Type": "binding signal",
    "Assay Result": 0.00555
  },
  {
    "Sequence Content": "CCACCATCCC",
    "Observation Type": "binding signal",
    "Assay Result": 0.0055
  },
  {
    "Sequence Content": "CCCTCGCCCC",
    "Observation Type": "binding signal",
    "Assay Result": 0.00702
  },
  {
    "Sequence Content": "CCACACCCCC",
    "Observation Type": "binding signal",
    "Assay Result": 0.00738
  },
  {
    "Sequence Content": "CCCTCCCCCA",
    "Observation Type": "binding signal",
    "Assay Result": 0.00881
  },
  {
    "Sequence Content": "CCCCCGCCGC",
    "Observation Type": "binding signal",
    "Assay Result": 0.00436
  },
  {
    "Sequence Content": "CCAACCCACC",
    "Observation Type": "binding signal",
    "Assay Result": 0.00642
  },
  {
    "Sequence Content": "CCCACCCACA",
    "Observation Type": "binding signal",
    "Assay Result": 0.00688
  },
  {
    "Sequence Content": "AAAAAAGCGG",
    "Observation Type": "binding signal",
    "Assay Result": 0.0255
  },
  {
    "Sequence Content": "AAACAGCATG",
    "Observation Type": "binding signal",
    "Assay Result": 0.00101
  },
  {
    "Sequence Content": "AAAAGCTATC",
    "Observation Type": "binding signal",
    "Assay Result": 0.129
  },
  {
    "Sequence Content": "CCCCCGACCC",
    "Observation Type": "binding signal",
    "Assay Result": 0.00587
  },
  {
    "Sequence Content": "GCCACCCCCC",
    "Observation Type": "binding signal",
    "Assay Result": 0.00546
  },
  {
    "Sequence Content": "GTGGGGTGGA",
    "Observation Type": "binding signal",
    "Assay Result": 0.00573
  },
  {
    "Sequence Content": "CCACCCTCAC",
    "Observation Type": "binding signal",
    "Assay Result": 0.00427
  },
  {
    "Sequence Content": "CCCCCCCCCC",
    "Observation Type": "binding signal",
    "Assay Result": 0.00358
  },
  {
    "Sequence Content": "CGTCCCCCAC",
    "Observation Type": "binding signal",
    "Assay Result": 0.00468
  },
  {
    "Sequence Content": "ACTTCATACA",
    "Observation Type": "binding signal",
    "Assay Result": 0.393
  },
  {
    "Sequence Content": "CACCCCCCGC",
    "Observation Type": "binding signal",
    "Assay Result": 0.00537
  },
  {
    "Sequence Content": "CCACCCTACC",
    "Observation Type": "binding signal",
    "Assay Result": 0.00688
  },
  {
    "Sequence Content": "CCCTCCGCCC",
    "Observation Type": "binding signal",
    "Assay Result": 0.00936
  },
  {
    "Sequence Content": "CCCACCGTCC",
    "Observation Type": "binding signal",
    "Assay Result": 0.00449
  },
  {
    "Sequence Content": "CGTCCCCACC",
    "Observation Type": "binding signal",
    "Assay Result": 0.00541
  },
  {
    "Sequence Content": "AAAAAGCATC",
    "Observation Type": "binding signal",
    "Assay Result": 0.0262
  },
  {
    "Sequence Content": "CCCCCTCCCG",
    "Observation Type": "binding signal",
    "Assay Result": 0.00573
  },
  {
    "Sequence Content": "CTCCCCTCCC",
    "Observation Type": "binding signal",
    "Assay Result": 0.00693
  },
  {
    "Sequence Content": "CCGCCCCCTC",
    "Observation Type": "binding signal",
    "Assay Result": 0.00573
  },
  {
    "Sequence Content": "AAAGCTGCAC",
    "Observation Type": "binding signal",
    "Assay Result": 0.0548
  },
  {
    "Sequence Content": "CACAAAAAAA",
    "Observation Type": "binding signal",
    "Assay Result": 0.0107
  }
]
